So I've got pKi readings for kappa opioid receptor (KOR) (Mus musculus, UniProt P33534), take a look.
pKi: −log10 of the molar value.
value-type: pKi

- compound: "O=C(N[C@@]12CCC(=O)[C@@H]3Oc4c(O)ccc5c4[C@@]31CCN(CC1CC1)[C@@H]2C5)c1ccccn1 [Compound 10]"
  rel: "="
  result-value: 9.44
- compound: "O=C(O[C@@]12CCC(=O)[C@@H]3Oc4c(O)ccc5c4[C@@]31CCN(CC1CC1)[C@@H]2C5)c1cc2ccccc2cn1 [Compound 6]"
  rel: "<"
  result-value: 5.00
- compound: "O=C(CNC(=O)c1ccccn1)N[C@@]12CCC(=O)[C@@H]3Oc4c(O)ccc5c4[C@@]31CCN(CC1CC1)[C@@H]2C5 [Compound 20]"
  rel: "="
  result-value: 9.85
- compound: "O=C(O[C@@]12CCC(=O)[C@@H]3Oc4c(O)ccc5c4[C@@]31CCN(CC1CC1)[C@@H]2C5)c1cccnc1 [Compound 3]"
  rel: "="
  result-value: 7.32
- compound: "O=C(O[C@@]12CCC(=O)[C@@H]3Oc4c(O)ccc5c4[C@@]31CCN(CC1CC1)[C@@H]2C5)c1cnc2ccccc2c1 [Compound 8]"
  rel: "="
  result-value: 6.83
- compound: "O=C(O[C@@]12CCC(=O)[C@@H]3Oc4c(O)ccc5c4[C@@]31CCN(CC1CC1)[C@@H]2C5)c1ccccn1 [Compound 2]"
  rel: "="
  result-value: 7.59

Where do the numbers come from? From paper PMC4373589.
